meta.source: patent US20230235054A1

system name: T1, huNectin4-His (human, UniProt Q96NY8 32-349)
T1 construct: Immobilized on the SPR chip; also called humanNectin4; human Nectin4; not shown: His tag
T1 sequence (looked up): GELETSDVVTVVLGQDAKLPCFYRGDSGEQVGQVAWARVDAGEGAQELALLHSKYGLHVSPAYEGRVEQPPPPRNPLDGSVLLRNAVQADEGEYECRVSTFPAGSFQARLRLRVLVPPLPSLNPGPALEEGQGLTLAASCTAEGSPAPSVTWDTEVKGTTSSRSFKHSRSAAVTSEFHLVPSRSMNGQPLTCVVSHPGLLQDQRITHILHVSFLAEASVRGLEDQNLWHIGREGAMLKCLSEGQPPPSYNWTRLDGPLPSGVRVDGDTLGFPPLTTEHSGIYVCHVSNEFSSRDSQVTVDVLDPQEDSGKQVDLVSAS
protocol notes: SPR, huNectin4-His immobilized, pH 7.4
measure name: Kd (pM)
Field: numeric (pM). Do not append units.

Worked examples, 3 binders total:
[
  {
    "binder": "BAP-143-06-33-16 (antibody, V domains shown, Used as a conjugate with a linker payload (CAB ADC)) VH: EVQLVQSGAEVKKPGATVKISCKVSGFTFSSYNMNWIRQSPSRGLEWLGYISSSSSTIYYADSVKGRFTISRDNSKNTLYLQMNSLRAEDTAVYYCARAYYYGDDVWGQGTLVTVSS VL: DIQMTQSPSSVSASVGDRVTITCRASQGISGWEAWYQQKPGKAPKFLIYAASTLQSGVPSRFSGSGSGTDFTLTISSLQPEDFATYYCQQANSFPPTFGGGTKVEIK",
    "Kd / pM": 170
  },
  {
    "binder": "BAP-143-wildtype (antibody, V domains shown, 150 kDa used in SPR; also called BAP143-00-00; benchmark (BM)) VH: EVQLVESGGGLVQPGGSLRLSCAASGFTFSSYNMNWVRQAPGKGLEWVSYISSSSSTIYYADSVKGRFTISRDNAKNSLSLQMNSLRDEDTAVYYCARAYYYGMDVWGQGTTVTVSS VL: DIQMTQSPSSVSASVGDRVTITCRASQGISGWLAWYQQKPGKAPKFLIYAASTLQSGVPSRFSGSGSGTDFTLTISSLQPEDFATYYCQQANSFPPTFGGGTKVEIK",
    "Kd / pM": 127
  },
  {
    "binder": "BAP-143-00-01 (antibody, V domains shown, Used as a conjugate with a linker payload (CAB ADC)) VH: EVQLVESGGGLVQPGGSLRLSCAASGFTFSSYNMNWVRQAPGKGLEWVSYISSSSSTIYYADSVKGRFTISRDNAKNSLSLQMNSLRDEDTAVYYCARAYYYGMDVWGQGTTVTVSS VL: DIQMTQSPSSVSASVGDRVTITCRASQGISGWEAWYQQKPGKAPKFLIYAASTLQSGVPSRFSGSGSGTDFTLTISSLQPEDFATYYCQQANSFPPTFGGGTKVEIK",
    "Kd / pM": 1810
  }
]

Field: next binder
Which value of Kd has been reported for BAP-143-06-24-16 (antibody, V domains shown, Used as a conjugate with a linker payload (CAB ADC)) VH: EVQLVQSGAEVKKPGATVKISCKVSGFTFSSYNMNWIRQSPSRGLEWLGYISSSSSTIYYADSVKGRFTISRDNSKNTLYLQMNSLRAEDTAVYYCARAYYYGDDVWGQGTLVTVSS VL: DIQMTQSPSSVSASVGDRVTITCHASQGISGWLAWYQQKPGKAPKFLIYAASTLQSGVPSRFSGSGSGTDFTLTISSLQPEDFATYYCQQANSFPPTFGGGTKVEIK in the records? 6.7
